test system: A-427; assay: relative viability (nuclei count vs DMSO), 5 days (fraction); higher = more cells survive; conditions: first compound 0.002 µM
Response field label: string, one of 1.0 (relative viability strictly below 0.8) or 0.0.

A record lists CCNC(=O)c1noc(-c2cc(C(C)C)c(O)cc2O)c1-c1ccc(CN2CCOCC2)cc1 [Luminespib] + CC(C)C[C@H](NC(=O)[C@H](Cc1ccccc1)NC(=O)c1cnccn1)B(O)O [Bortezomib] (partner 0.002 µM) . Is its relative viability below 0.8?
0.0

Is relative viability strictly under 0.8 for the entry CCNC(=O)c1noc(-c2cc(C(C)C)c(O)cc2O)c1-c1ccc(CN2CCOCC2)cc1 [Luminespib] + C[C@]1(O)C[C@@H](c2nc(-c3ccc4ccc(-c5ccccc5)nc4c3)c3c(N)nccn32)C1 [Linsitinib] (partner 1 µM) ?
0.0

Quick check: relative viability of CCNC(=O)c1noc(-c2cc(C(C)C)c(O)cc2O)c1-c1ccc(CN2CCOCC2)cc1 [Luminespib] + CC(=O)Nc1cccc(-n2c(=O)n(C3CC3)c(=O)c3c(Nc4ccc(I)cc4F)n(C)c(=O)c(C)c32)c1 [Trametinib] (partner 0.02 µM) under 0.8?
1.0

Does the reported relative viability of CCNC(=O)c1noc(-c2cc(C(C)C)c(O)cc2O)c1-c1ccc(CN2CCOCC2)cc1 [Luminespib] + Cc1nc(NC(=O)N2CCC[C@H]2C(N)=O)sc1-c1ccnc(C(C)(C)C(F)(F)F)c1 [Alpelisib] (partner 2 µM) stay below 0.8?
0.0

Ref: the supplement of paper PMC10307832
